Origin of the recorded values: PubChem BioAssay (NCI)

system: SN12C renal; assay: NCI-60 one-dose screen, 48 h (100 = growth as untreated, 0 = no growth, -100 = all killed); conditions: 10 µM unless noted
This is part of a sample that, as a whole, favours compounds with a hit. Of some 83,000 tested, about 20% had one in any assay.

MOLECULE	growth [%]
CSc1ccc(N=C=C(c2ccccc2)c2ccccc2)cc1	81.7
Cc1nn(-c2nc3ccccc3[nH]2)c2c1C(c1ccc3c(c1)OCO3)CC(=O)N2 (stereo not given)	41.9
COc1ccc(-c2c3c(nc4n[nH]c(-c5ccc(Cl)cc5)c24)-c2ccccc2C(=O)C3=O)cc1	12
Clc1cccc(Nc2nc(Nc3cnc4ccccc4c3)c3[nH]cnc3n2)c1	61.2
CCOc1ccc(Nc2nc(-c3c(C)nc4ncccn34)cs2)cc1	14.3

----------
test system: K-562 leukemia; test: NCI-60 one-dose screen, 48 h; conditions: 10 µM unless noted
This is part of a sample that, as a whole, favours compounds with a hit. Of some 83,000 tested, about 20% had one in any assay. Active and inactive are the calls of the source. The calls were made as follows: active = growth percent below 10; inactive = the rest.
Outcome codes: active, inactive

MOL	ASSIGNED LABEL
COc1cc(-c2nc3ccccc3s2)ccc1NC(=O)COc1ccc(Cl)cc1	inactive
O=C(C[C@@H](C(=O)NCc1cccc(C(F)(F)F)c1)N1C(=O)[C@@H](N2C(=O)OC[C@@H]2c2ccccc2)[C@H]1/C=C/c1ccccc1)NC1CCN(Cc2ccccc2)CC1	active
O=C(CN1CCN(c2cc3c(cc2F)c(=O)c(C(=O)O)cn3C2CC2)CC1)Nc1nc(-c2ccccc2)cs1	inactive
Cn1c(=O)c2c(ncn2CC[N+](C)(C)C)n(C)c1=O	inactive
O=C(/C=C/c1cc2ccccc2[nH]c1=O)/C=C/c1cc2ccccc2[nH]c1=O	active
O=C(N/N=C/c1ccc(O)cc1O)c1cccnc1	inactive

----------
tested on: TK-10 renal; experiment: NCI-60 one-dose screen, 48 h; settings: 10 µM unless noted
Compounds without any hit were thinned out: in the full panel of roughly 83,000, 20% have a hit. Active and inactive are the calls of the source. The calls were made as follows: active = growth percent below 10; inactive = the rest.
Classes used: Y for active, N for inactive

MOLECULE	ASSIGNED LABEL
CCn1cc2c(cc1=O)-c1nc3ccccc3c3ccnc(c13)C2=O	N
CC/C=C\C[C@H](O)C/C=C1/C(=O)C=C[C@@H]1C/C=C\CCCC(=O)NC	Y
O=C1C[C@H](N2C(=O)c3ccccc3S2(=O)=O)C2CO[C@@H]1O2	N
Brc1cccc(-c2nc(-c3ccc4c(c3)OCCO4)co2)c1	N
CNC(=S)N/N=C/CSC/C=N/NC(=S)NC	N
O=C(/C=C/c1ccc(B(O)O)cc1)/C=C/c1ccc(B(O)O)cc1	N
Cc1ccc(-c2nc(/C=N/Nc3cc(C)nc4ccc(Br)cc34)c(C)o2)cc1	Y
Cc1ccc(SCN2CCN(c3cccc(Cl)c3)CC2)cc1	N
COc1ccc(-c2cc(NC(=O)Nc3ccc(O)cc3)no2)cc1	N
C=C1C(=O)O[C@H]2[C@H]1CC/C(Cn1cc(Cn3ccc4ccccc43)nn1)=C\CC[C@@]1(C)O[C@@H]21	N
Nc1nc2c(c3ncccc13)C(c1cccc(Br)c1)Cc1ncccc1-2 (stereo not drawn)	N
CC(C)(C)n1cc(-c2ccnc(NCCCNS(=O)(=O)c3cccc4ccccc34)c2)c(-c2cccc(O)c2)n1	N
COc1ccc(/C=C2\N=C3Sc4cc(Cl)ccc4C(=O)N3C2=O)cc1	N
O=C1Nc2ccccc2/C1=C/C(=N/c1nnc(-c2ccc(Cl)cc2)s1)c1ccccc1	Y
CC(=O)CC(C)(C)c1ccc(Cl)cc1	N
O=C(NC(Cc1ccccc1)C(=O)CCl)OCc1ccccc1 (stereo not drawn)	N
CCC(c1ccccc1)C(CC)c1ccc(O)c(O)c1 (stereo not drawn)	N
O=C(/C=C/c1ccc(Cl)cc1)/C=C/c1cc2ccccc2[nH]c1=O	N
O=C1/C(=C\c2cn(C(=O)c3ccc(Cl)cc3)c3ccccc23)c2ccccc2N1c1c(Cl)cccc1Cl	N
c1c2c(cc3c1OCO3)Cc1cc3c(cc1Cc1cc4c(cc1C2)OCO4)OCO3	N
O=C1c2c[n+](Cc3ccccc3)ccc2-c2nc3ccccc3c3ccnc1c23	Y
C[C@]12C[C@@H](c3ccoc3)OC(=O)[C@@H]1CC[C@]1(C)[C@@H]2CC[C@@H](O)[C@]1(C)O	N
COCCOC(=O)C1=C(C)NC(=S)NC1c1ccc2c(c1)OCO2 (stereo not drawn)	N
CN1Cc2c(cc(CN3CCCCC3)n2C)C(c2ccc(Br)cc2)C1 (stereo not drawn)	N
CC1=NNC(=O)C1C (stereo not drawn)	N
COc1cc(NCCCCN=C(N)NC(N)=NC(C)C)c2ncccc2c1	N
O=C1/C(=C/c2ccccc2)CN(CCC(=O)N2C/C(=C\c3ccccc3)C(=O)/C(=C/c3ccccc3)C2)C/C1=C\c1ccccc1	N
COc1ccc(-c2cc(=O)[nH]c3c(OC)c4ccccc4c(OC)c23)cc1	N
O=C(/C=C\c1cccc([N+](=O)[O-])c1)c1ccccc1	N
O=c1cc(-c2ccccc2)[nH]c2ccccc12	N
CC1=C(NCCN2CCCC2)C(=O)c2c(OCc3ccc(F)c(Cl)c3)cccc2C1=O	N
O=[N+]([O-])c1cccc(-c2nc3sccn3c2-c2ccnc(NCCCNS(=O)(=O)c3cccc(F)c3)n2)c1	N
CC/C(=C(\c1ccccc1)c1ccc(OCCNC)cc1)c1ccccc1	Y
